Cited source for all entries: the supplement of paper PMC10567573

Would you mind telling me the reported protein stability index of each entry?
B1: ATL3 (parent)
chain: YGLQGGMAFLDKRLQVKEHQHEEI

Variants of: B1
Test: protein stability index of a GFP-peptide fusion (GPS, HEK-293T) (PSI 1-6); higher = more stable;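 further: lentivirally expressed fusions sorted by FACS into six bins by GFP to DsRed ratio, PSI derived from sequencing read proportions per bin multiplied by bin number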
Details: c terminus: a fixed tail appended
A bare number is all that is needed in reply.

Q: Name the reported protein stability index value associated with the variant YGLQGGMAFLDKHLQVKEHQHEEI [R13H]
Result: 2.26

Q: I have this variant here, YGLQGGMAFLDKRLQVKEHQTEEI [H21T] , and I need its recorded protein stability index.
Result: 3.49

Q: Query: protein stability index; subject: YGLQGGMAFLDKRLQVKMHQHEEI [E18M]
Result: 3.04

Q: State the recorded protein stability index for this entry: YGLQGGMAFLDKRQQVKEHQHEEI [L14Q]
Result: 1.52

Q: Reported protein stability index, variant YGLQGGMAFLDKRLQVKEHQAEEI [H21A] : ____
Result: 2.51

Q: Which protein stability index is listed for YGLQGGMVFLDKRLQVKEHQHEEI [A8V] ?
Result: 2.42

Q: Look at this variant and give its reported protein stability index. YGLQGGMAFLDKRLQEKEHQHEEI [V16E]
Result: 2.79

Q: Which protein stability index value belongs to YGLQMGMAFLDKRLQVKEHQHEEI [G5M] ?
Result: 2.1

Q: Given the entry YGLFGGMAFLDKRLQVKEHQHEEI [Q4F] , report its measured protein stability index.
Result: 2.32

Q: I would be grateful if you could share the reported protein stability index for YGLQPGMAFLDKRLQVKEHQHEEI [G5P] .
Result: 2.65

Q: Form field: reported protein stability index of YGLQGGMAFLDKRLQVKEHVHEEI [Q20V]
Result: 2.99

Q: Returns the measured protein stability index for the input variant. Input: YGLQGGMAFLDKRLQVKEHQYEEI [H21Y]
Result: 2.55

Q: protein stability index for YGLQGGMAFLDKRLQVKEHQHEMI [E23M] ?
Result: 3.12

Q: Look up protein stability index for this variant: YCLQGGMAFLDKRLQVKEHQHEEI [G2C]
Result: 1.82

Q: Look at this variant and give its reported protein stability index. YGLQFGMAFLDKRLQVKEHQHEEI [G5F]
Result: 1.82

Q: Can you share its protein stability index? I mean this variant: YGLQGGMAFLDKRLQVKSHQHEEI [E18S]
Result: 1.73

Q: Name the recorded protein stability index for YGLQGGMAFLDKRLQVKKHQHEEI [E18K] .
Result: 3.37

Q: Can you share its protein stability index? I mean this variant: YGLQGGMAFLDKRLRVKEHQHEEI [Q15R]
Result: 2.28

Q: Sample YQLQGGMAFLDKRLQVKEHQHEEI [G2Q] — what was its protein stability index?
Result: 2.11

Q: Consider the variant shown here: YGLQGGMAFLDKRVQVKEHQHEEI [L14V] What is its recorded protein stability index?
Result: 2.45

Q: # input variant: YGLQGGMAFLDKRLSVKEHQHEEI [Q15S] ; wanted: its protein stability index
Result: 3.92

Q: protein stability index lookup needed for YGLQGGMAFLYKRLQVKEHQHEEI [D11Y] , thanks.
Result: 2.74

Q: Give the measured protein stability index of YGLQGGMAFLDKRLQVKEHQHELI [E23L] .
Result: 2.25

Q: Sample GGLQGGMAFLDKRLQVKEHQHEEI [Y1G] — what was its protein stability index?
Result: 4.73

Q: Given the entry YGLQGGMWFLDKRLQVKEHQHEEI [A8W] , report its measured protein stability index.
Result: 3.35

Q: Entry YGLQGGMAKLDKRLQVKEHQHEEI [F9K] has what protein stability index?
Result: 4.4

Q: GET /values?readout=protein stability index&item= YGLQGGMAFLDKRLQVQEHQHEEI [K17Q]
Result: 1.55

Q: Any idea what its protein stability index is? The variant is YGLQGGMAFLDKREQVKEHQHEEI [L14E]
Result: 2.55

Q: For YGLQGGMAFLDKRLQVKEHCHEEI [Q20C] , what is its reported protein stability index?
Result: 3.54

Q: Dear colleague, I am looking for the recorded protein stability index of the following variant: YGLQGGMAFLDKRLHVKEHQHEEI [Q15H]
Result: 2.75

Q: For the variant shown here, YGLQGGMAFLDMRLQVKEHQHEEI [K12M] , give the reported protein stability index.
Result: 2.89

Q: Looking for the measured protein stability index of YGLQGGMAFLFKRLQVKEHQHEEI [D11F] , can you help?
Result: 1.78

Q: Please give the measured protein stability index for this variant: YGLQGGMAFLDKRLQVKEHQLEEI [H21L]
Result: 2.8

Q: State the recorded protein stability index for this entry: YGLQGGMAFLDKRLQVKEHQHEEC [I24C]
Result: 3.25

Q: I have this variant here, YGLQGGMAFLDKNLQVKEHQHEEI [R13N] , and I need its recorded protein stability index.
Result: 2.87

Q: Form field: reported protein stability index of YGLRGGMAFLDKRLQVKEHQHEEI [Q4R]
Result: 2.67

Q: Given the entry YGLQGGMAFLDKGLQVKEHQHEEI [R13G] , report its measured protein stability index.
Result: 1.28

Q: # get_value(readout='protein stability index', item= YGLQGGHAFLDKRLQVKEHQHEEI [M7H] )
Result: 1.75

Q: # protein stability index lookup, item YGLQGGMAMLDKRLQVKEHQHEEI [F9M]
Result: 4.25

Q: Tell me the measured protein stability index of YGLQGGMAFLDKRLQVAEHQHEEI [K17A] , please.
Result: 1.42

Q: What value of protein stability index has been reported for the following variant? YGLIGGMAFLDKRLQVKEHQHEEI [Q4I]
Result: 2.86

Q: Which value of protein stability index has been reported for RGLQGGMAFLDKRLQVKEHQHEEI [Y1R] in the records?
Result: 4.07

Q: Looking for the measured protein stability index of YGLQGGMAFLDKRLQVKEHQHETI [E23T] , can you help?
Result: 2.74

Q: // query protein stability index value for entry YGLSGGMAFLDKRLQVKEHQHEEI [Q4S]
Result: 2.16

Q: Using the record for YGLQGGMAFLDKRLQVKYHQHEEI [E18Y] , report its protein stability index.
Result: 2.61

Q: If you can, please state the reported protein stability index value of YGLQGGMAFLDKRLAVKEHQHEEI [Q15A] .
Result: 3.14

Q: I am curious: what protein stability index value has been reported for YGLQGGMAFLDKRLQVKHHQHEEI [E18H] ?
Result: 2.48

Q: # query: protein stability index of entry YGNQGGMAFLDKRLQVKEHQHEEI [L3N]
Result: 2.45

Q: I would be grateful if you could share the reported protein stability index for YGLQGGMAFLDKRLQVKESQHEEI [H19S] .
Result: 2.01

Q: Data request, read-out protein stability index, for YGLQGGPAFLDKRLQVKEHQHEEI [M7P]
Result: 2.18

Q: Recorded protein stability index for YGLQGGMAFLDKRLQVFEHQHEEI [K17F] , please?
Result: 2.52

Q: Tell me the measured protein stability index of YGLQGGMDFLDKRLQVKEHQHEEI [A8D] , please.
Result: 3.79

Q: Item under review: YGLQGGMQFLDKRLQVKEHQHEEI [A8Q] . Reported protein stability index?
Result: 2.02

Q: I would be grateful if you could share the reported protein stability index for YGLQRGMAFLDKRLQVKEHQHEEI [G5R] .
Result: 2.39

Q: Need protein stability index of YGLQGGMAFLDKILQVKEHQHEEI [R13I] , thanks.
Result: 1.66

Q: So what's the measured protein stability index for this one? YGLQGGMAFNDKRLQVKEHQHEEI [L10N]
Result: 2.05

Q: Which measured protein stability index value corresponds to YGLQGPMAFLDKRLQVKEHQHEEI [G6P] ?
Result: 2.65

Q: What does the data say about its protein stability index? Entry: YGLQGGMAFLDFRLQVKEHQHEEI [K12F]
Result: 3.37

Q: Need protein stability index, item YGLQGGMAFLDKRLEVKEHQHEEI [Q15E]
Result: 1.76

Q: Returns the measured protein stability index for the input variant. Input: YGLQGGMAFLQKRLQVKEHQHEEI [D11Q]
Result: 1.72

Q: What protein stability index value was documented for this variant, YGLQGGMAFLDKRLQVKEHQPEEI [H21P] ?
Result: 2.33

Q: Report protein stability index for YGLQSGMAFLDKRLQVKEHQHEEI [G5S] please.
Result: 2.25

Q: Consider the variant shown here: YGLQGGYAFLDKRLQVKEHQHEEI [M7Y] What is its recorded protein stability index?
Result: 1.93

Q: protein stability index for YGLQGGMAFLDKRLQVKEWQHEEI [H19W] ?
Result: 3.59

Q: Any idea what its protein stability index is? The variant is YGLQGDMAFLDKRLQVKEHQHEEI [G6D]
Result: 2.31

Q: What measured protein stability index goes with YGLQGGGAFLDKRLQVKEHQHEEI [M7G] ?
Result: 2.02

Q: Name the recorded protein stability index for YGLQGGMANLDKRLQVKEHQHEEI [F9N] .
Result: 4.51

Q: Record request: protein stability index value, item YGLQGGMAFLDKRLQVKEHRHEEI [Q20R]
Result: 1.57

Q: Any idea what protein stability index was measured for YGLQGGMAFLDYRLQVKEHQHEEI [K12Y] ?
Result: 2.73

Q: Item under review: YGLQGGMAFLDKRLQVKEHQHEEK [I24K] . Reported protein stability index?
Result: 2.35

Q: Entry YGLQGGMAFLDKRLQMKEHQHEEI [V16M] has what protein stability index?
Result: 2.42

Q: If you can, please state the reported protein stability index value of YGLQGGMAFLDKRLQVKEHQHLEI [E22L] .
Result: 2.68

Q: What value of protein stability index has been reported for the following variant? YGLQGGMAFLDKRSQVKEHQHEEI [L14S]
Result: 2.57

Q: Look up protein stability index: YGLQGGMAFLDKRLQVMEHQHEEI [K17M]
Result: 2.55

Q: protein stability index for YGLQGGMAFLWKRLQVKEHQHEEI [D11W] ?
Result: 2.01

Q: What measured protein stability index goes with KGLQGGMAFLDKRLQVKEHQHEEI [Y1K] ?
Result: 4.26

Q: Give its protein stability index value. Item: YKLQGGMAFLDKRLQVKEHQHEEI [G2K]
Result: 3.22
